- study-target: PDGFRβ (Homo sapiens)
- Construct: made in house
- Sequence (P09619 33-1106): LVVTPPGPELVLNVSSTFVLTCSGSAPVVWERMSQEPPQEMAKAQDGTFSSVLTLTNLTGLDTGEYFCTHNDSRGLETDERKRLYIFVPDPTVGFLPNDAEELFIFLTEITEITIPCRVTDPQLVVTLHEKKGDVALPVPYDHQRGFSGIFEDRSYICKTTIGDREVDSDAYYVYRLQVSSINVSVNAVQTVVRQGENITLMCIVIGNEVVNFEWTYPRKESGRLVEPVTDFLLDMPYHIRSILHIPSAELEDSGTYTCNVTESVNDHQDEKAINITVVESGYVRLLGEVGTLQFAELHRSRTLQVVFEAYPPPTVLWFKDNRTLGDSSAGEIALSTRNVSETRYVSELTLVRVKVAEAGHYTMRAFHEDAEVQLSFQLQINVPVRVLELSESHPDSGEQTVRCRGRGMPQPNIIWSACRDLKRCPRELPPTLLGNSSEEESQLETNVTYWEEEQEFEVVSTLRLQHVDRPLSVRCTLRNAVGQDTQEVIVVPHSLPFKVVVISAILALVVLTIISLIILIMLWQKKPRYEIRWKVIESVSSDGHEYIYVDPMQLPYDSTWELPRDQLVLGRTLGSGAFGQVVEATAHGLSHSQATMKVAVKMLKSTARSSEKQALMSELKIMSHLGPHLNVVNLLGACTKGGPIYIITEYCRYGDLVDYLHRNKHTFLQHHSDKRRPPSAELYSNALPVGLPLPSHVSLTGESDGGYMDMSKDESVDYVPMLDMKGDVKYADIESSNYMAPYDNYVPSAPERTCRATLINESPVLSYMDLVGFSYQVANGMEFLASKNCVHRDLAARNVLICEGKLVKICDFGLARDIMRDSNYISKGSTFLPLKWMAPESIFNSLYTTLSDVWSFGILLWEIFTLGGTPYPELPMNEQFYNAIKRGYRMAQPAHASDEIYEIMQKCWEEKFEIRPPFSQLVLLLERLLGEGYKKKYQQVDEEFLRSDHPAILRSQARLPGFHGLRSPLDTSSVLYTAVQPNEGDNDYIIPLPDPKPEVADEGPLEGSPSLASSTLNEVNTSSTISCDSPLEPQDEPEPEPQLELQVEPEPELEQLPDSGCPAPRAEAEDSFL
- protocol-description: Competition binding assay, PDGFRβ Kd
- Description: Competition binding assays used herein were developed, validated and performed as described in Fabian et al., Nature Biotechnology 2005, 23, 329-336. […] Kds were determined using an eleven point threefold serial dilutions. […] The kinase concentration in the eluates was measured by quantitative PCR.
endpoint-name: Kd

Problem: State the recorded Kd for this entry: Cn1cc(-c2cn(Cc3ccc4nc(N[C@@H]5CCCC[C@H]5O)oc4c3)cn2)cn1 [Example 77]
Result: 500 to 2000 nM

Problem: State the recorded Kd for this entry: O[C@@H]1Cc2ccccc2[C@H]1Nc1nc2ccc(Cn3cnc4cccnc43)cc2s1 [Example 46]
Result: ≤ 50 nM

Problem: State the recorded Kd for this entry: COc1cc2ncn(Cc3ccc4nc(N[C@@H]5c6ccccc6C[C@H]5O)sc4c3)c2cc1OC [Example 19]
Result: 50 to 500 nM

Problem: State the recorded Kd for this entry: COc1cc2ncn(Cc3ccc4nc(NCCN5CCOCC5)sc4c3)c2cc1OC [Example 14]
Result: 500 to 2000 nM

Problem: State the recorded Kd for this entry: O[C@@H]1CCCC[C@H]1Nc1nc2ccc(Cn3cnc4cncnc43)cc2s1 [Example 48]
Result: 50 to 500 nM

Problem: State the recorded Kd for this entry: O[C@@H]1CCCC[C@H]1Nc1nc2ccc(Cn3cnc4ccc(Br)nc43)cc2s1 [Example 78]
Result: ≤ 50 nM

Problem: State the recorded Kd for this entry: CSc1cnc2c(c1)ncn2Cc1ccc2nc(N[C@@H]3CCCC[C@H]3O)sc2c1 [Example 85]
Result: ≤ 50 nM

Problem: State the recorded Kd for this entry: O[C@@H]1CCCC[C@H]1Nc1nc2ccc(Cc3c[nH]c4ncccc34)cc2s1 [Example 17]
Result: 50 to 500 nM

Problem: State the recorded Kd for this entry: O[C@@H]1CCCC[C@H]1Nc1nc2ccc(Cn3cnc4cc(Cl)cnc43)cc2s1 [Example 55]
Result: ≤ 50 nM

Problem: State the recorded Kd for this entry: O[C@@H]1CCCC[C@H]1Nc1nc2ccc(Cn3cnc4cc(-c5nn[nH]n5)cnc43)cc2s1 [Example 93]
Result: ≤ 50 nM

Problem: State the recorded Kd for this entry: CS(=O)(=O)O.O[C@@H]1CCCC[C@H]1Nc1nc2ccc(Cn3cnc4cccnc43)cc2s1 [Example 3]
Result: 50 to 500 nM

Problem: State the recorded Kd for this entry: OCC1(CNc2nc3ccc(Cn4cnc5cccnc54)cc3s2)CCCCC1 [Example 76]
Result: ≤ 50 nM

Problem: State the recorded Kd for this entry: COc1cc2ncn(Cc3ccc4nc(N[C@@H]5CCCCC[C@H]5O)sc4c3)c2cc1OC (racemic) [Example 50]
Result: ≤ 50 nM

Problem: State the recorded Kd for this entry: O[C@@H]1CCCC[C@H]1Nc1nc2ccc(Cn3cnc4cccnc43)cc2o1 [Example 56]
Result: ≤ 50 nM

Problem: State the recorded Kd for this entry: N#Cc1ccc2ncn(Cc3ccc4nc(N[C@@H]5CCCC[C@H]5O)sc4c3)c2n1 [Example 87]
Result: ≤ 50 nM

Problem: State the recorded Kd for this entry: CC(=O)NCc1cnc2c(c1)ncn2Cc1ccc2nc(N[C@@H]3CCCC[C@H]3O)sc2c1 [Example 99]
Result: 500 to 2000 nM

Problem: State the recorded Kd for this entry: O[C@@H]1Cc2ccccc2[C@H]1Nc1nc2ccc(Cn3cnc4ccc(Br)nc43)cc2s1 [Example 80]
Result: ≤ 50 nM

Problem: State the recorded Kd for this entry: OC1(CNc2nc3ccc(Cn4cnc5cccnc54)cc3s2)CCCCC1 [Example 75]
Result: ≤ 50 nM

Problem: State the recorded Kd for this entry: COc1cc2ncn(Cc3ccc4nc(N[C@@H]5CCCC[C@H]5O)oc4c3)c2cc1OC [Example 34]
Result: 50 to 500 nM

Problem: State the recorded Kd for this entry: COC(=O)c1cnc2c(c1)ncn2Cc1ccc2nc(N[C@@H]3CCCC[C@H]3O)sc2c1 [Example 79]
Result: ≤ 50 nM

Problem: State the recorded Kd for this entry: OC[C@H](Nc1nc2ccc(Cn3cnc4cccnc43)cc2s1)C1CCCCC1 [Example 64]
Result: ≤ 50 nM

Problem: State the recorded Kd for this entry: CCOc1ccccc1Nc1nc2ccc(Cn3cnc4cc(OC)c(OC)cc43)cc2s1 [Example 27]
Result: 50 to 500 nM

Problem: State the recorded Kd for this entry: O[C@@H]1Cc2ccccc2[C@H]1Nc1nc2ccc(Cn3cnc4cncnc43)cc2s1 [Example 95]
Result: ≤ 50 nM

Problem: State the recorded Kd for this entry: O[C@@H]1CCCC[C@H]1Nc1nc2ccc(Cc3cnc4ccccn34)cc2s1 [Example 38]
Result: > 2000 nM

Problem: State the recorded Kd for this entry: C#Cc1cnc2c(c1)ncn2Cc1ccc2nc(N[C@@H]3CCCC[C@H]3O)sc2c1 [Example 96]
Result: ≤ 50 nM

Problem: State the recorded Kd for this entry: C=Cc1cnc2c(c1)ncn2Cc1ccc2nc(N[C@@H]3CCCC[C@H]3O)sc2c1 [Example 98]
Result: ≤ 50 nM

Problem: State the recorded Kd for this entry: N=C(NO)c1cnc2c(c1)ncn2Cc1ccc2nc(N[C@@H]3CCCC[C@H]3O)sc2c1 [Example 90]
Result: 50 to 500 nM

Problem: State the recorded Kd for this entry: COc1cc2ncn(Cc3ccc4nc(NCC5CCCCC5)sc4c3)c2cc1OC [Example 28]
Result: ≤ 50 nM

Problem: State the recorded Kd for this entry: COc1cc2ncn(Cc3ccc4nc(N[C@@H]5c6ccccc6C[C@@H]5O)sc4c3)c2cc1OC [Example 10]
Result: 50 to 500 nM

Problem: State the recorded Kd for this entry: COc1cc2ncn(Cc3ccc4nc(Nc5ccccc5)sc4c3)c2cc1OC [Example 22]
Result: > 2000 nM

Problem: State the recorded Kd for this entry: O[C@@H]1Cc2ccccc2[C@H]1Nc1nc2ccc(Cn3cnc4cccnc43)cc2o1 [Example 57]
Result: ≤ 50 nM

Problem: State the recorded Kd for this entry: COc1cc2ncn(Cc3ccc4nc(N[C@@H]5CCCCC5O)sc4c3)c2cc1OC (stereo in doubt) [Example 2]
Result: 50 to 500 nM

Problem: State the recorded Kd for this entry: OC[C@@H]1CCCC[C@H]1Nc1nc2ccc(Cn3cnc4cccnc43)cc2s1 [Example 66]
Result: 50 to 500 nM

Problem: State the recorded Kd for this entry: CNC(=O)c1cnc2c(c1)ncn2Cc1ccc2nc(N[C@@H]3CCCC[C@H]3O)sc2c1 [Example 89]
Result: ≤ 50 nM
